STUDY_TARGET: PI3Kδ (Homo sapiens, UniProt O00329)
Construct: made in house
Sequence (O00329 whole entry): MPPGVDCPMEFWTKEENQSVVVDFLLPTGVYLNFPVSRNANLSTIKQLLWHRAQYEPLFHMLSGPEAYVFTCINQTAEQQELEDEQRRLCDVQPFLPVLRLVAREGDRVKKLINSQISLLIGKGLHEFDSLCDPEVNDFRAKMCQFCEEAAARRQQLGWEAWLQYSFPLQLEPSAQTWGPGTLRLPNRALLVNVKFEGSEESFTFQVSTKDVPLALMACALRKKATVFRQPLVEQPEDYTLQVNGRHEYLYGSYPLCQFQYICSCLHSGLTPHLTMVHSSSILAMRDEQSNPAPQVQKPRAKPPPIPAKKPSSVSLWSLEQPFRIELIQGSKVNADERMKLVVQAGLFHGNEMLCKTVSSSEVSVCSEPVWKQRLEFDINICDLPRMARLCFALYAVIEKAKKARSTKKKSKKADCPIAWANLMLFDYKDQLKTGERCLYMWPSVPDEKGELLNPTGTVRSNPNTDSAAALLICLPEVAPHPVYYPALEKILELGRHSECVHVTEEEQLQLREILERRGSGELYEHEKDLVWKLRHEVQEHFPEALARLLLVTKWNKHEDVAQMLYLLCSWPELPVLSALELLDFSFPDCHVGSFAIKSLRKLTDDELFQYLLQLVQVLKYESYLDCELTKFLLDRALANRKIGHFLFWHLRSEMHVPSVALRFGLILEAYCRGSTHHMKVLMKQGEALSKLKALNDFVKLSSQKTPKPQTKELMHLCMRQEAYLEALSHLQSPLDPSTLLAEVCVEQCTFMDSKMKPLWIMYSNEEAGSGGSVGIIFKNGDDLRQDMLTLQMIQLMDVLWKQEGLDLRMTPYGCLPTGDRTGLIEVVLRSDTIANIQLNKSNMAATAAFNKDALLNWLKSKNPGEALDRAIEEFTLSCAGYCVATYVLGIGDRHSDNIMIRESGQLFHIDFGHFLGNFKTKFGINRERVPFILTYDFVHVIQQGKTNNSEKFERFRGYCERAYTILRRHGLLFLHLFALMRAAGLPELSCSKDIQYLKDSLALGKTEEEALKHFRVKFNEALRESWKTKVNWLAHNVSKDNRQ
Sequence (P27986 whole entry partner): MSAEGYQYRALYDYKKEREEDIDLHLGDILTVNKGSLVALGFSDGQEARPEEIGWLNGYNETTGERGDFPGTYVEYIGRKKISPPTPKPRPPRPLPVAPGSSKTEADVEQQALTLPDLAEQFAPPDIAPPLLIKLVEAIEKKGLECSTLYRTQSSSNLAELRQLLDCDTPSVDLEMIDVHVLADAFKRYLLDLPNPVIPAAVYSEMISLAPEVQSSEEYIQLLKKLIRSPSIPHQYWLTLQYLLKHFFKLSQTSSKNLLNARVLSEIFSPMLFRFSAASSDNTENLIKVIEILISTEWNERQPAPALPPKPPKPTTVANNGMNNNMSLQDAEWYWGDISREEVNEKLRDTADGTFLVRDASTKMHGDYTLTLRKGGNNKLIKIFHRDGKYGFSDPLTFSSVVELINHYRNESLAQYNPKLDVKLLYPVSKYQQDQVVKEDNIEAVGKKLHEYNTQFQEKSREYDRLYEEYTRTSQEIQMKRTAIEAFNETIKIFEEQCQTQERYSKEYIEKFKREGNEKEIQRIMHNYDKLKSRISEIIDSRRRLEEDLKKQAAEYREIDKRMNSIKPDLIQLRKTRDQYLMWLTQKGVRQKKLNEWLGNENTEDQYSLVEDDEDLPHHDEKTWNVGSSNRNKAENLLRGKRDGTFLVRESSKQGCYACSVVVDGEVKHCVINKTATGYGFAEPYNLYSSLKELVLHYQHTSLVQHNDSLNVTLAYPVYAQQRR
PROCEDURE_DETAILS: TR-FRET enzymatic activity assay, PI3Kδ
Assay type: biochemical
TEST_PARAMETERS: Table 2; TR-FRET, 2x Km ATP, 30 minutes at 25° C.
Let's look at some compounds and their measured pIC50.
pIC50 here: minus log base 10 of the concentration, concentration in moles per litre.

// known answers, use as guide
{"COMPOUND": "CC[C@H](Nc1nc(N)nc(N)c1Cl)c1nc2c(Cl)ccc(Cl)c2c(=O)n1-c1cc[nH]n1 [Compound 66]", "STUDY_TARGET": "PI3Kδ (Homo sapiens, UniProt O00329)", "pIC50": 7.44}
{"COMPOUND": "CC[C@H](Nc1ncnc2scnc12)c1nc2cccc(Br)c2c(=O)n1-c1cn[nH]c1 [Compound 100]", "STUDY_TARGET": "PI3Kδ (Homo sapiens, UniProt O00329)", "pIC50": 8.40}
{"COMPOUND": "Nc1nc(N)c(Cl)c(N[C@@H](c2ccccc2)c2nc3cccc(Cl)c3c(=O)n2-c2cn[nH]c2)n1 [Compound 107]", "STUDY_TARGET": "PI3Kδ (Homo sapiens, UniProt O00329)", "pIC50": 7.96}
{"COMPOUND": "CC[C@H](NC(=O)c1nccnc1N)c1nc2c(Cl)ccc(Cl)c2c(=O)n1-c1cc[nH]n1 [Compound 118]", "STUDY_TARGET": "PI3Kδ (Homo sapiens, UniProt O00329)", "pIC50": 6.59}
{"COMPOUND": "CC[C@H](Nc1nc(F)nc2[nH]cnc12)c1nc2c(Cl)ccc(Cl)c2c(=O)n1-c1cn[nH]c1 [Compound 55]", "STUDY_TARGET": "PI3Kδ (Homo sapiens, UniProt O00329)", "pIC50": 7.19}

Consider the compound CC[C@H](Nc1nc(N)nc(C)c1C#N)c1nc2c(C#N)cccc2c(=O)n1-c1cn[nH]c1 [Compound 93] and give its measured pIC50.
8.05

Consider the compound O=c1c2c(Cl)cccc2nc([C@@H](Nc2ncnc3scnc23)C2CC2)n1-c1cc[nH]n1 [Compound 26] and give its measured pIC50.
9.22

Consider the compound Cc1cc(-n2c([C@H](C)Nc3ncnc(N)c3C#N)nc3cccc(Cl)c3c2=O)n[nH]1 [Compound 7] and give its measured pIC50.
7.37

Consider the compound CC[C@H](Nc1nc(N)nc(N)c1C#N)c1nc2c(C)cccc2c(=O)n1-c1cn[nH]c1 [Compound 33] and give its measured pIC50.
7.66
